B1: glmS ribozyme (parent)
chain: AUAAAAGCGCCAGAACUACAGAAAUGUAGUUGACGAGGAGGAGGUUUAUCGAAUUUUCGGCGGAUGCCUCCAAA

variants of: B1; assay: self-cleavage kobs at 160 uM GlcN6P; higher = faster cleavage; RNA array; conditions: with glucosamine-6-phosphate
This sample holds only a part of the variants without activity.
assay_readout: self-cleavage kobs at 160 uM GlcN6P

# sequence_string, self-cleavage kobs at 160 uM GlcN6P
records = [
    ("AUAAAAGCGCCAGAACUACAGAAAUGUAGUCAACGAGGAGGAGGUUUAUCGAAUUUUCGGCGGAUGCCUCCAAA [U31C G32A]", "6.8e-05 s⁻¹"),
    ("AUAAAAGCGCCAGAACUACAGAAAUGUAGUUGACGAGGAGGAGGUUUAUCGAAUUUUCGACGCAUGCCUCCAAA [G60A G63C]", "< 1e-05 s⁻¹"),
    ("AUAAAAGCGCCAGAACUACAGAAAUGUAGUUGACGAGGAGGAAGUUUAUCGAAUUUUCGGCGUAUGCCUCCAAA [G43A G63U]", "< 1e-05 s⁻¹"),
    ("AUAAAAGCGCCAGAACUACAGAAAUGUAGCUGACAAGGCCGAGGUUUAUCGAAUUUUCGGCGGAUGCAUCCAAA [U30C G35A A39C G40C C68A]", "< 1e-05 s⁻¹"),
    ("AUAAAAGCGCCAGCACUACAGAAAUGUAGUUGACGAGGAUGAGGUUUAUCGAAUUUUCUGUGGAUGCCUCCAAA [A14C G40U G59U C61U]", "< 1e-05 s⁻¹"),
]

### Prompt Identify measured self-cleavage kobs at 160 uM GlcN6P associated with AUAAAAGCGCCAGAACUACAGAAAUGUAGUUGACGAGGAGGGGGUUUAUCGAUUUUUCGGCGGAUGCCUCCAAA [A42G A53U]
### Response 0.00186 s⁻¹

### Prompt Write down self-cleavage kobs at 160 uM GlcN6P measured for item AUAAAAGCGCCAGAACUACAGAAAUGUAGUUGACGAGGAGGAGGUUUAUCGAAUGGUCGGCGGAUGCCUCCAAA [U55G U56G]
### Response 0.000797 s⁻¹

### Prompt Give the value of self-cleavage kobs at 160 uM GlcN6P reported for the following: AUAAACGCGCCAGAAUUACAGAAAUGUAGUUGACGAGGAAGAGGUUUAUCGAAUUUCCGGCGGAUGCCACCAAA [A6C C16U G40A U57C U69A]
### Response < 1e-05 s⁻¹

### Prompt Specify self-cleavage kobs at 160 uM GlcN6P for AUAAAAGCGCCAGAACUACAGAAAUGUAGUUUACGAGGAGGAGGUUUAUCGAAUUUUCGGCUGAUGCCUCCAAA [G32U G62U] and stop.
### Response < 1e-05 s⁻¹

### Prompt Quickly give me recorded self-cleavage kobs at 160 uM GlcN6P for AUAAAAGCGCCAGAACUACAGAAAUGUAGUUGACUAGGAGGAGGUUUAGCGAAUUUUCGGCGGAUGCCUCCAAA [G35U U49G]
### Response < 1e-05 s⁻¹

### Prompt Respond only with self-cleavage kobs at 160 uM GlcN6P recorded for AUAAAAGGGCCAGAACUACAGAAAUGUAGUUGACGAGGAGGAGGUUUAUUGAAUUUUCGGCGGAUGCCUCCAAA [C8G C50U]
### Response < 1e-05 s⁻¹

### Prompt # return recorded self-cleavage kobs at 160 uM GlcN6P for entry AUAAAACCGCCAGAAGUACAGAAAUGUAGUUGACGAGGAGGAGGUUAAUCGAAUUUUCGGCGGAUGCCUCCAAA [G7C C16G U47A]
### Response < 1e-05 s⁻¹
